Reported IC50 is given for each of the following molecules.
# Tested on: Plasmodium falciparum
# assay_info: Antiplasmodial activity against Plasmodium falciparum 3D7 assessed as reduction in parasite viability incubated for 48 hrs by APAD colorimetric test
# Assay type: functional, organism-based
# experimental_parameters: 3D7, 48 h
Quick note: give the figure in µM, leave out the unit.

Observe how each entry below is paired with its result.
INSERT INTO assay_data (molecule, uom, result_value) VALUES
  ('C=C[C@](C)(O)CC[C@@H]1[C@@]2(C)CCCC(C)(C)[C@@H]2CC[C@@]1(C)O', 'µM', 35),
  ('CC(=O)OC/C=C(\C)CC[C@@H]1[C@@]2(C)CCCC(C)(C)[C@@H]2CC[C@@]1(C)O', 'µM', 29.1),
  ('C/C(=C\CO)CC[C@@H]1[C@@]2(C)CCCC(C)(C)[C@@H]2CC[C@@]1(C)O', 'µM', 36.6),
  ('CC(CCOC=O)CC[C@@H]1[C@@]2(C)CCCC(C)(C)[C@@H]2CC[C@@]1(C)O (some centres undefined)', 'µM', 73),
  ('C[C@H](CCO)CC[C@@H]1[C@@]2(C)CCCC(C)(C)[C@@H]2CC[C@@]1(C)O', 'µM', 22.2),
  ('CCC(C)C(=O)OCCC(C)CC[C@@H]1[C@@]2(C)CCCC(C)(C)[C@@H]2CC[C@@]1(C)O (some centres undefined)', 'µM', 58),
  ('CC(=O)OCC[C@@H](C)CC[C@@H]1[C@@]2(C)CCCC(C)(C)[C@@H]2CC[C@@]1(C)O', 'µM', 33.2);

// switching to the query molecule
Look at this molecule and give its reported IC50. CCC(C)CC(=O)OCCC(C)CC[C@@H]1[C@@]2(C)CCCC(C)(C)[C@@H]2CC[C@@]1(C)O (some centres undefined) 54.8
